Cited source for all entries: PubChem BioAssay AID2156

- testSystem: Potassium voltage-gated channel subfamily KQT member 2 (Rattus norvegicus) (UniProt O88943)
- Sequence (O88943 whole entry, looked up): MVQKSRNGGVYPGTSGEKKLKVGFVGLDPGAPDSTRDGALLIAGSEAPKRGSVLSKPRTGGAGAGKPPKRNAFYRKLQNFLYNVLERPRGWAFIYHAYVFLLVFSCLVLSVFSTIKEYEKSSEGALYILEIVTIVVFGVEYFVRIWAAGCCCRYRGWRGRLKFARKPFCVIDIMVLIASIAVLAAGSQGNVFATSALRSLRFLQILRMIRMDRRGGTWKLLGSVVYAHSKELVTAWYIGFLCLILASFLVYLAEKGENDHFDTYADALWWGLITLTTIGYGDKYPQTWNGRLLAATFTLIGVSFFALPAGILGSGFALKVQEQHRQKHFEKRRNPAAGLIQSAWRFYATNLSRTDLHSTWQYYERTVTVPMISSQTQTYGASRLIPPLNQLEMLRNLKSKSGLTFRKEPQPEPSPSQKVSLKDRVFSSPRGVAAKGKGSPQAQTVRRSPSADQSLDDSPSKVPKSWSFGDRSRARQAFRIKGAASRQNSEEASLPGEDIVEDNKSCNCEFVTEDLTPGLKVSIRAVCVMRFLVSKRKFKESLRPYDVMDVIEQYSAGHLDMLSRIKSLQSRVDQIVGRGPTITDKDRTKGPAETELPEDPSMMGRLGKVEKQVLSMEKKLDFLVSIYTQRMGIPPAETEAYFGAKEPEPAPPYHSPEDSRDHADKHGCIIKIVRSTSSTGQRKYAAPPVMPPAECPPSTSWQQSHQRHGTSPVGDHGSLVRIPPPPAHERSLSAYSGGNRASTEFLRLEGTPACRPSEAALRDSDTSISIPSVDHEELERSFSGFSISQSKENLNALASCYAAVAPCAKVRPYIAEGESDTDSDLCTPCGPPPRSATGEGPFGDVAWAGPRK
- testName: rat KCNQ2 potassium channel inhibitors, primary screen, cell-based, CHO-K1, FluxOR thallium flux, B-score (AID 2156)
- conditionDescription: 20 min, at 10 µM; active compounds read low
Screen size: about 310,000 compounds; about 3,400 (1.1%) were called active. The full list was thinned out, with actives kept by preference.
measuredParameter: B-score

// known answers, use as guide
In [3]: df
Out[3]:
                                   molecule            result
0  Cc1ccccc1NC(=O)C(C)OC(=O)CCC(=O)N(CC(C)C)c1c(N)n(CC(C)C)c(=O)[nH]c1=O (configuration not stated)          inactive
1  CCC1CCC/C1=N\NC(=O)c1ccc(Cl)cc1 (configuration not stated)          inactive
2  O=C(Nc1ccccc1Cl)/C(Cl)=C(\Cl)S(=O)c1ccccc1 (configuration not stated)    -9.85 (active)
3            CN(/N=C/c1ccccc1)C(=S)c1ccccc1          inactive
4  O=C(CN1CCCCCC1)N1c2ccccc2Sc2ccc(C(F)(F)F)cc21  -3.82 (inactive)
5  COc1ccc(C(=O)NC2CCCc3c2cnn3-c2cccc(C)c2C)c(OC)n1 (configuration not stated)    -6.25 (active)
6                  O=C(Nc1ccccc1Cl)Nn1cnnc1          inactive
7                  Brc1cnc2ccccc2c1N1CCCCC1          inactive

Data request, read-out B-score, for N#CCCN(C(=O)COC(=O)c1ccc(S(=O)(=O)N2CCCCCC2)cc1)c1ccccc1 inactive

Try the molecule Cc1cc(C(=O)NC2CCCc3c2cnn3-c2cccc(C)c2C)c(C)o1 (configuration not stated) -2.79 (inactive)

Try the molecule CCOn1c(SC(C)C)nc2ccccc2c1=O -2.44 (inactive)

Try the molecule Cc1onc(-c2ccccc2Cl)c1C(=O)NCCn1ccc2ccccc21 -5.59 (active)

Try the molecule CCOC(=O)C1CCc2nc3ccccc3c(=O)n21 (configuration not stated) inactive

Try the molecule CCOc1cc(/C=N/NC(=O)c2cccc(S(=O)(=O)N3CCOCC3)c2)ccc1OCC(=O)N(C)C -0.36 (inactive)

Try the molecule Cc1ccc(CSCC(=O)N(C)CC(=O)Nc2ccc(C)cc2)cc1 inactive

Try the molecule COc1cc(/C=C/C(=O)N2c3ccccc3Sc3ccc(C(F)(F)F)cc32)cc(OC)c1OC -7.31 (active)

Try the molecule Cc1ccc(C(=O)CN2C(=O)NC3(CCc4ccccc43)C2=O)c(C)c1 (configuration not stated) -1.41 (inactive)

Try the molecule COc1ccccc1CNC(=O)COn1nnc2ccc(S(=O)(=O)N3CCOCC3)cc21 inactive

Try the molecule O=C(OCC1OC(Oc2ccc(O)cc2)C(O)C(O)C1O)c1ccccc1 (configuration not stated) -0.52 (inactive)
